Source: patent US20240270762A1

Measured MIC, listed per entry.
System: E. coli 901C
Assay: microbe, parasite or virus in culture
Format: cell-based
Conditions: Escherichia coli, read-out: MIC E. coli 901C
reported metric: MIC

[
  {
    "compound": "CC(=O)N1CCC[C@@H]1C(=O)N[C@H](C(=O)N[C@H]1Cc2cccc(C(=O)O)c2OB1O)c1ccc(P(=O)(O)O)cc1 [Example 33]",
    "reported metric": "MIC",
    "reported": "32 to 64 mg/L"
  },
  {
    "compound": "O=C1CC[C@H](C(=O)NC(C(=O)N[C@H]2Cc3cccc(C(=O)O)c3OB2O)c2ccc(P(=O)(O)O)cc2)N1 (stereo partly shown) [Example 53]",
    "reported metric": "MIC",
    "reported": "8 to 16 mg/L"
  },
  {
    "compound": "O=C(O)c1cccc2c1OB(O)[C@@H](NC(=O)C(NC(=O)N1CCCC1=O)c1ccc(P(=O)(O)O)cc1)C2 (stereo partly shown) [Example 57]",
    "reported metric": "MIC",
    "reported": "< 1 mg/L"
  },
  {
    "compound": "O=C(O)c1cccc2c1OB(O)[C@@H](NC(=O)C(NS(=O)(=O)C1CC1)c1ccc(P(=O)(O)O)cc1)C2 (stereo partly shown) [Example 61]",
    "reported metric": "MIC",
    "reported": "32 to 64 mg/L"
  },
  {
    "compound": "CCN1CCN(C(=O)NC(C(=O)N[C@H]2Cc3cccc(C(=O)O)c3OB2O)c2cccc(CP(=O)(O)O)c2)C(=O)C1=O (stereo partly shown) [Example 22]",
    "reported metric": "MIC",
    "reported": "< 1 mg/L"
  },
  {
    "compound": "CC(C)S(=O)(=O)NC(C(=O)N[C@H]1Cc2cccc(C(=O)O)c2OB1O)c1ccc(P(=O)(O)O)cc1 (stereo partly shown) [Example 60]",
    "reported metric": "MIC",
    "reported": "32 to 64 mg/L"
  },
  {
    "compound": "O=C(O)c1cccc2c1OB(O)[C@@H](NC(=O)[C@@H](NC(=O)c1ccn[nH]c1=O)c1ccc(P(=O)(O)O)cc1)C2 (single isomer, unassigned) [Example 177]",
    "reported metric": "MIC",
    "reported": "2 to 4 mg/L"
  },
  {
    "compound": "Cn1cccc(C(=O)N[C@H](C(=O)N[C@H]2Cc3cccc(C(=O)O)c3OB2O)c2ccc(P(=O)(O)O)cc2)c1=O (single isomer, unassigned) [Example 181]",
    "reported metric": "MIC",
    "reported": "32 to 64 mg/L"
  },
  {
    "compound": "CCN1CCN(C(=O)N[C@@H](C(=O)N[C@H]2Cc3ccc(F)c(C(=O)O)c3OB2O)c2ccc(P(=O)(O)O)cc2)C(=O)C1=O (single isomer, unassigned) [Example 10]",
    "reported metric": "MIC",
    "reported": "< 1 mg/L"
  },
  {
    "compound": "O=C(O)c1cccc2c1OB(O)[C@@H](NC(=O)C(NC(=O)c1ncccc1Cl)c1ccc(P(=O)(O)O)cc1)C2 (stereo partly shown) [Example 183]",
    "reported metric": "MIC",
    "reported": "8 to 16 mg/L"
  },
  {
    "compound": "CS(=O)(=O)NC(C(=O)N[C@H]1Cc2cccc(C(=O)O)c2OB1O)c1ccc(P(=O)(O)O)cc1 (stereo partly shown) [Example 59]",
    "reported metric": "MIC",
    "reported": "32 to 64 mg/L"
  },
  {
    "compound": "O=C(O)c1cccc2c1OB(O)[C@@H](NC(=O)[C@@H](NC(=O)c1cnc3n(c1=O)CCS3)c1ccc(P(=O)(O)O)cc1)C2 (single isomer, unassigned) [Example 196]",
    "reported metric": "MIC",
    "reported": "32 to 64 mg/L"
  },
  {
    "compound": "CCN1CCN(C(=O)NC(C(=O)N[C@H]2Cc3cccc(C(=O)O)c3OB2O)c2ccc(P(=O)(O)O)cc2)C1=O (stereo partly shown) [Example 42]",
    "reported metric": "MIC",
    "reported": "< 1 mg/L"
  }
]

###

Target or system UniProtKB A0ABX6CK25; recorded quantity IC50.
Sequence (A0ABX6CK25 64-610): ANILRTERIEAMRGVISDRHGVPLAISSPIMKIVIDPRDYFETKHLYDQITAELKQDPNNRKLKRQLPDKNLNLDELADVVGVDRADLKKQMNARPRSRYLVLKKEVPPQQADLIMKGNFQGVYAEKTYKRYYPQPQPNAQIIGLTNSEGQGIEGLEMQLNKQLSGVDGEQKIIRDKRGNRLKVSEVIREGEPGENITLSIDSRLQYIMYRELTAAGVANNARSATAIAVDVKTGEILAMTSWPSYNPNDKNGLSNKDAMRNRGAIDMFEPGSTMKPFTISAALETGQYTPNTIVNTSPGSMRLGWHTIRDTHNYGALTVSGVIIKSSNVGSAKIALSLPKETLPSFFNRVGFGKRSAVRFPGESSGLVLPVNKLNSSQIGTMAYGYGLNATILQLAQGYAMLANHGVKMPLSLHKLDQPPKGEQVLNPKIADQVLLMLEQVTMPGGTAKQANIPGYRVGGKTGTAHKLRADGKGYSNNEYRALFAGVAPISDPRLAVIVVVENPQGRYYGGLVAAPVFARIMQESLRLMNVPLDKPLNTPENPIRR

[
  {
    "molecule": "O=C(O)c1c(F)ccc2c1OB(O)[C@@H](NC(=O)[C@H](NC(=O)N1CCN(C3CCN(C(=O)c4cc(O)cc(O)c4)CC3)C1=O)c1cc(F)c(O)c(O)c1Cl)C2 (single isomer, unassigned)",
    "IC50": "< 10 µM"
  },
  {
    "molecule": "O=C(O)c1c(F)ccc2c1OB(O)[C@@H](NC(=O)C(NC(=O)N1CCN(S(=O)(=O)CCNC(=O)[C@@H]3CCCN3)C1=O)c1cc(F)c(O)c(O)c1Cl)C2 (stereo partly drawn)",
    "IC50": "< 10 µM"
  },
  {
    "molecule": "O=C(NCCCS(=O)(=O)N1CCN(C(=O)NC(C(=O)N[C@H]2Cc3ccc(F)c(C(=O)O)c3OB2O)c2cc(F)c(O)c(O)c2Cl)C1=O)Nc1cccnc1 (stereo partly drawn)",
    "IC50": "< 10 µM"
  }
]

###

Biological target: UniProtKB A0ABX6CK30
Sequence (A0ABX6CK30 1-851): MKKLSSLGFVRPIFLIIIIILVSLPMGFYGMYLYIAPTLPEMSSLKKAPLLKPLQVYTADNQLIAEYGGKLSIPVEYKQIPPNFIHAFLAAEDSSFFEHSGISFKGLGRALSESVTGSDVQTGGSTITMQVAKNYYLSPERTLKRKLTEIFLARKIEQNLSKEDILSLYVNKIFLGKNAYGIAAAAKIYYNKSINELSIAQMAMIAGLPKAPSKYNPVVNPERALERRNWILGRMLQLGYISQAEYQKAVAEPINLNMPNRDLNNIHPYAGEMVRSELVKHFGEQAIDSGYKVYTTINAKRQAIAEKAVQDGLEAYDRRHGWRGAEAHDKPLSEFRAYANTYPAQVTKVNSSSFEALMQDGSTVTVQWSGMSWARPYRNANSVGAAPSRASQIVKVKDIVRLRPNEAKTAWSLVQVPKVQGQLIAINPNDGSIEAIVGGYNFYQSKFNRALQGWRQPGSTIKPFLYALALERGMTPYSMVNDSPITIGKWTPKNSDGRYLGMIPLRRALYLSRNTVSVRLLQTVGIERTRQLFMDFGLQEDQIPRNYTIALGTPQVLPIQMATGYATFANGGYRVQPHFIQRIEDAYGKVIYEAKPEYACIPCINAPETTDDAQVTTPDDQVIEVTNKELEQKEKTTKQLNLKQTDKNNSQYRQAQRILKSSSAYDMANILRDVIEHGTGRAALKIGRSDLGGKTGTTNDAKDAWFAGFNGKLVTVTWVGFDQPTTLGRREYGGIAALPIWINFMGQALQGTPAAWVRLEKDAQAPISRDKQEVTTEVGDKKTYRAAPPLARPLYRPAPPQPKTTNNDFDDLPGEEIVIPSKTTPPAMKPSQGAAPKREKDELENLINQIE
Assay: Bocillin-FL competition binding via gel filtration, A. baumannii PBP1a
Details: competition binding assay using Bocillin-FL via gel filtration; read-out: A. baumannii PBP1a Potency
pEC50: −log10 of the molar value.
Item-by-item account of pEC50

[
  {
    "compound": "O=C(NCCN1CCN(C(=O)N[C@@H](C(=O)N[C@H]2Cc3ccc(F)c(C(=O)O)c3OB2O)c2ccc(P(=O)(O)O)cc2)C(=O)C1=O)c1ccc(O)c(O)c1Cl",
    "pEC50": "4.30 to 5.00"
  },
  {
    "compound": "O=C(O)c1c(F)ccc2c1OB(O)[C@@H](NC(=O)C(NC(=O)N1CCN(C3CCN(C(=O)Nc4cc(O)c(F)cc4Cl)CC3)C(=O)C1=O)c1cc(F)c(O)c(O)c1Cl)C2 (some centres unmarked)",
    "pEC50": "> 5.00"
  },
  {
    "compound": "Nc1ccc(CN2CCC(N3CCN(C(=O)N[C@@H](C(=O)N[C@H]4Cc5ccc(F)c(C(=O)O)c5OB4O)c4cc(F)c(O)c(O)c4Cl)C3=O)CC2)cn1 (single isomer, unassigned)",
    "pEC50": "4.30 to 5.00"
  },
  {
    "compound": "O=C(O)c1cccc2c1OB(O)[C@@H](NC(=O)C(NC(=O)N1CCN(Cc3cc(F)c(O)c(O)c3Cl)C(=O)C1=O)c1ccc(P(=O)(O)O)cc1)C2 (some centres unmarked)",
    "pEC50": "> 5.00"
  },
  {
    "compound": "O=C(O)c1c(F)ccc2c1OB(O)[C@@H](NC(=O)C(NC(=O)N1CCN(C3CCN(Cc4ccc(O)c(F)c4)CC3)C1=O)c1cc(F)c(O)c(O)c1Cl)C2 (single isomer, unassigned)",
    "pEC50": "> 5.00"
  },
  {
    "compound": "NCc1cc(O)cc(CN2CCC(N3CCN(C(=O)N[C@@H](C(=O)N[C@H]4Cc5ccc(F)c(C(=O)O)c5OB4O)c4cc(F)c(O)c(O)c4Cl)C3=O)CC2)c1 (single isomer, unassigned)",
    "pEC50": "4.30 to 5.00"
  },
  {
    "compound": "O=C(NCCCN1CCN(C(=O)N[C@@H](C(=O)N[C@H]2Cc3ccc(F)c(C(=O)O)c3OB2O)c2cc(F)c(O)c(O)c2Cl)C1=O)Nc1cccc(O)c1",
    "pEC50": "4.30 to 5.00"
  },
  {
    "compound": "O=C(O)c1c(F)ccc2c1OB(O)[C@@H](NC(=O)[C@H](NC(=O)N1CCN(C3CCN(C(=O)c4cccc(O)c4F)CC3)C1=O)c1cc(F)c(O)c(O)c1Cl)C2 (single isomer, unassigned)",
    "pEC50": "> 5.00"
  },
  {
    "compound": "O=C(NCCS(=O)(=O)N1CCN(C(=O)NC(C(=O)N[C@H]2Cc3ccc(F)c(C(=O)O)c3OB2O)c2cc(F)c(O)c(O)c2Cl)C1=O)Nc1cccc(O)c1 (some centres unmarked)",
    "pEC50": "> 5.00"
  },
  {
    "compound": "O=C(O)c1c(F)ccc2c1OB(O)[C@@H](NC(=O)C(NC(=O)N1CCN(C3CCN(C(=O)Nc4ccc(F)c(O)c4F)CC3)C1=O)c1cc(F)c(O)c(O)c1Cl)C2 (some centres unmarked)",
    "pEC50": "4.30 to 5.00"
  },
  {
    "compound": "O=C(O)c1c(F)ccc2c1OB(O)[C@@H](NC(=O)C(NC(=O)N1CCN(C3CCN(C(=O)Cc4cccc(O)c4)CC3)C(=O)C1=O)c1cc(F)c(O)c(O)c1Cl)C2 (some centres unmarked)",
    "pEC50": "4.30 to 5.00"
  },
  {
    "compound": "O=C(O)c1c(F)ccc2c1OB(O)[C@@H](NC(=O)[C@H](NC(=O)N1CCN(C3CCN(Cc4ccnnc4)CC3)C1=O)c1cc(F)c(O)c(O)c1Cl)C2",
    "pEC50": "> 5.00"
  },
  {
    "compound": "O=C(NCCCN1CCN(C(=O)N[C@@H](C(=O)N[C@H]2Cc3ccc(F)c(C(=O)O)c3OB2O)c2cc(F)c(O)c(O)c2Cl)C(=O)C1=O)c1ccnc(F)c1F",
    "pEC50": "4.30 to 5.00"
  },
  {
    "compound": "O=C(O)c1c(F)ccc2c1OB(O)[C@@H](NC(=O)[C@H](NC(=O)N1CCN(Cc3ccc(O)c(O)c3Cl)C(=O)C1=O)c1cc(F)c(P(=O)(O)O)c(F)c1)C2",
    "pEC50": "4.30 to 5.00"
  },
  {
    "compound": "O=C(O)c1c(F)ccc2c1OB(O)[C@@H](NC(=O)[C@H](NC(=O)N1CCN(C3CCN(C(=O)c4ccc(F)c(O)c4)CC3)C1=O)c1cc(F)c(O)c(O)c1Cl)C2 (single isomer, unassigned)",
    "pEC50": "> 5.00"
  },
  {
    "compound": "O=C(NCCCN1CCN(C(=O)NC(C(=O)N[C@H]2Cc3ccc(F)c(C(=O)O)c3OB2O)c2cc(F)c(O)c(O)c2Cl)C(=O)C1=O)c1ccc(O)c(F)c1F (some centres unmarked)",
    "pEC50": "> 5.00"
  },
  {
    "compound": "O=C(O)c1c(F)ccc2c1OB(O)[C@@H](NC(=O)[C@H](NC(=O)N1CCN(C3CCN(C(=O)c4cc(O)cc(O)c4)CC3)C1=O)c1cc(F)c(O)c(O)c1Cl)C2 (single isomer, unassigned)",
    "pEC50": "> 5.00"
  },
  {
    "compound": "O=C(NCCS(=O)(=O)N1CCN(C(=O)N[C@@H](C(=O)N[C@H]2Cc3ccc(F)c(C(=O)O)c3OB2O)c2ccc(P(=O)(O)O)cc2)C1=O)c1ccc(O)c(O)c1Cl (single isomer, unassigned)",
    "pEC50": "3.60 to 4.30"
  },
  {
    "compound": "O=C(O)c1c(F)ccc2c1OB(O)[C@@H](NC(=O)C(NC(=O)N1CCN(Cc3ccc(O)c(O)c3Cl)C1=O)c1ccc(P(=O)(O)O)cc1)C2 (some centres unmarked)",
    "pEC50": "> 5.00"
  },
  {
    "compound": "O=C(O)c1c(F)ccc2c1OB(O)[C@@H](NC(=O)C(NC(=O)N1CCN(C3CCN(C(=O)c4ccc(O)cc4)CC3)C(=O)C1=O)c1cc(F)c(O)c(O)c1Cl)C2 (some centres unmarked)",
    "pEC50": "> 5.00"
  }
]
